Measured MIC by item
Test system: Escherichia coli
assay.info: Antimicrobial activity against Escherichia coli ATCC 25922 by […]
Assay type: functional
Peptide text beside a SMILES is read from it. * marks the point of attachment. Lauroyl = CCCCCCCCCCCC(=O)*

# compound, tested.system, MIC (mg/L)
records = [
    ("CCCCCCCCCCCCCCCC(=O)N[C@H](CCCN)CC(=O)NCCC(=O)NCCC(=O)N[C@H](CCCN)CC(=O)O", "Escherichia coli", 64),
    ("CCCCCCCCCCCCCCCC(=O)N[C@H](CCCN)CC(=O)N[C@H](CCCN)CC(=O)N[C@H](CCCN)CC(=O)N[C@H](CCCN)CC(=O)O", "Escherichia coli", 16),
    ("CCCCCCCCCCCC(=O)N[C@@H](CCCCN)C(=O)N[C@@H](CC(C)C)C(=O)N[C@@H](CC(C)C)C(=O)N[C@@H](CCCCN)C(=O)O (Lauroyl-KLLK-OH)", "Escherichia coli", 128),
]
